# Species on record: Homo sapiens
# ASSAY SUMMARY: Inhibition of Leukotriene B4 production in human whole blood
# Assay type: functional
PARAMETER: pIC50
API: returns pIC50 as number; meaning -log10 of concentration in mol/L.

Q: What value of measured pIC50 is listed for O=C1OCc2c1cc1cc(OCc3cccc(C4(O)CC5COC(C4)O5)c3)ccc1c2-c1ccoc1 (stereo unspecified) ?
Result: 6.74

* * *

# ASSAY SUMMARY: Terminal half-life in iv dosed rat
# Format: ADME, organism-based
# TEST CONTEXT: in vivo, read-out: beta t1/2 (converted)
PARAMETER: half-life (h)
Use h as the unit, but write only the number.

Q: What value of measured half-life is listed for `CCC[C@@H](NC(=O)N1C(=O)C(CC)(CC)[C@@H]1Oc1ccc(CC(=O)O)cc1)c1ccc(C)cc1` ?
Result: 2.3
